# Test system: SF-268 CNS
# Test method notes: NCI tumour cell line growth inhibition, 48 h
Listed here are compounds together with their documented TGI.

Problem: Fill blank: measured TGI of the compound O=C1c2ccccc2C(=O)c2[nH]c(Cc3ccccc3F)nc21 is ____.
Result: > 100 µM

Problem: I would be grateful if you could share the reported TGI for COc1ccc(-c2nc(S(=O)(=O)c3ccccc3)c(S(=O)CC(=O)N3CCC(C)CC3)o2)cc1 (configuration not stated) .
Result: 14.9 µM

Problem: Using the record for COc1ccc(-n2cnc3c(N)nc(N)nc32)cc1 , report its TGI.
Result: > 100 µM

Problem: Suppose we examine the compound COc1ccc(-c2ncnc(-c3ccc(OC)c(OC)c3)n2)cc1OC ; what TGI value has been reported?
Result: > 100 µM

Problem: Reported TGI, compound CC(C)Cn1cnc2c(Sc3c([N+](=O)[O-])ncn3C)nc(N)nc21 : ____
Result: > 100 µM

Problem: Look up TGI: CCN(C(C)=N)c1ccccc1
Result: > 100 µM

---
Problem: Would you mind telling me what TGI value was observed for O=C(c1ccccc1)N(C(=S)NCCc1ccc(Cl)cc1)c1ccc(Cl)cc1 ?
Result: 18.4 µM

Problem: Suppose we examine the compound COc1ccc(/C=C/C(=O)c2cc(C(=O)O)c(OC)cc2OC)cc1OC ; what TGI value has been reported?
Result: > 100 µM

Problem: Would you mind telling me what TGI value was observed for COc1ccc2c(c1)c(-c1nonc1-c1cn(C)c3ccccc13)cn2C ?
Result: > 100 µM
